The values you see were collected from ChEMBL document CHEMBL5390236.

Would you kindly list MIC for each of these compounds?
test system: Staphylococcus aureus; experiment: Antibacterial activity against Staphylococcus aureus; assay type: functional

Use these answered entries as a reference point.
C[C@@H](CCCCCCCCCCCCCCO)C(=O)C1=C(O)N(C)[C@@H](C)C1=O :: 1 µg/mL
C[C@@H](CCCCCCCCC(=O)CCCCCCCCC[C@H](O)CO)/C(O)=C1/C(=O)N[C@@H](Cc2ccc(O)cc2)C1=O :: 2.8 µg/mL
C[C@@H](CCCCCCCCCCCCCCO[C@@H]1O[C@H](CO)[C@@H](O)[C@H](O)[C@@H]1O)C(=O)C1=C(O)N(C)[C@@H](C)C1=O :: 64 µg/mL

What MIC appears in the records for this compound with Staphylococcus aureus? C[C@@H](CCCCCCCCC(=O)CCCCCCCCC[C@H](O)CO[C@@H]1O[C@H](CO)[C@@H](O)[C@H](O)[C@@H]1O)/C(O)=C1/C(=O)N[C@@H](Cc2ccc(O)cc2)C1=O 7.2 µg/mL
